# target-under-test: RORγt (Homo sapiens)
# Sequence (P51449 1-497 isoform P51449-2, species assumed): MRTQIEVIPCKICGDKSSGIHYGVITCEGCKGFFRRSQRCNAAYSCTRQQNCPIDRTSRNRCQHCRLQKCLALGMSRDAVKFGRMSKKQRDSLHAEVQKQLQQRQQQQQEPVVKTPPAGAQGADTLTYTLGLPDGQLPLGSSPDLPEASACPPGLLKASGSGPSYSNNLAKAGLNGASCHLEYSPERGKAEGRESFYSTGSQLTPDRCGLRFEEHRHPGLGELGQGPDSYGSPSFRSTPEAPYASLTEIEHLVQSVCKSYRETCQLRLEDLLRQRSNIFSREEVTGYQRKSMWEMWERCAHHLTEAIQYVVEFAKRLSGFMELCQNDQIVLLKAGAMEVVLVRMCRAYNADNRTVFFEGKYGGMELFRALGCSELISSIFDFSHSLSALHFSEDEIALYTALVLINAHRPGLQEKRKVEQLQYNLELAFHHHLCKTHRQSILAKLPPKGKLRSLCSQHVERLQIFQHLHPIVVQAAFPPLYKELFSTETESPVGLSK
# protocol-notes: Jurkat Reporter Test (human IL-17 ROR response element luciferase, RORγt vector)
# Format: cell-based
# test-context: luminescence level inhibitory rate at test compound 3 μM, Jurkat cells; read-out: inhibitory rate (%)
result-type: inhibition at 3 µM (%)

{"molecule": "CCn1c2ccccc2c2cc(NC(=O)CC(C)CC(=O)Nc3ccc(C#N)cn3)ccc21 (stereo not drawn)", "assay-value": 110}
{"molecule": "CCn1c2ccccc2c2cc(NC(=O)CC(C)(O)CCOc3ccc(C#N)c(Cl)c3)ccc21 (stereo not drawn)", "assay-value": 92.5}
{"molecule": "CCn1c2ccccc2c2cc(NC(=O)CC(C)CC(=O)Nc3ccc(C#N)nc3)ccc21 (stereo not drawn)", "assay-value": 109}
{"molecule": "CCn1c2ccccc2c2cc(NC(=O)CC(C)CCOc3ccc(C#N)c(C#N)c3)ccc21 (stereo not drawn)", "assay-value": 102}
{"molecule": "CCCn1c2c(c3cc(NC(=O)CC(C)CC(=O)Nc4ccc(C#N)cc4)ccc31)CCCC2 (stereo not drawn)", "assay-value": 103}
{"molecule": "CCn1c2ccccc2c2cc(NC(=O)C[S+]([O-])CC(=O)Nc3ccc(C#N)cc3)ccc21 (stereo not drawn)", "assay-value": 82.7}
{"molecule": "CC(C)Cn1c2c(c3cc(NC(=O)CC(C)CC(=O)Nc4ccc(C#N)cc4)ccc31)CCCC2 (stereo not drawn)", "assay-value": 102}
{"molecule": "CCn1c2ccccc2c2cc(NC(=O)CC(C)CC(=O)Nc3ccc(C#N)c(OC)c3)ccc21 (stereo not drawn)", "assay-value": 96.4}
{"molecule": "CCn1c2ccccc2c2cc(NC(=O)CC(C)CCOc3ccc(C#N)c(C)c3)ccc21 (stereo not drawn)", "assay-value": 77.8}
{"molecule": "CCn1c2ccccc2c2cc(NC(=O)CSCC(=O)Nc3ccc(C#N)cc3)ccc21", "assay-value": 100}
{"molecule": "CCn1c2ccccc2c2cc(NC(=O)CC(C)CCOc3ccc(C#N)c(Cl)c3)ccc21 (stereo not drawn)", "assay-value": 99.4}
{"molecule": "CCn1c(C)c(C)c2cc(NC(=O)CC(C)CC(=O)Nc3ccc(C#N)cc3)ccc21 (stereo not drawn)", "assay-value": 82.6}
